tested_system: TRβ (Homo sapiens)
Construct: expressed in transfected cells; host or cells: HEK293
Sequence (P10828 217-461 limits assumed): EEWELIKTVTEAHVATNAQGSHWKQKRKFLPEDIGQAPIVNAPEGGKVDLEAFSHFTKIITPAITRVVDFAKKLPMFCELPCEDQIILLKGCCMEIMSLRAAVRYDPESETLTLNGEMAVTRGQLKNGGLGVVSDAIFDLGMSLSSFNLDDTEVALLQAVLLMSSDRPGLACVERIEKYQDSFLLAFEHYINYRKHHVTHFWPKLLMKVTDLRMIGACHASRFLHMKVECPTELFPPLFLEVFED
test_method_notes: Thyroid-hormone reporter-gene assay (TRβ-Gal4 hybrid, luciferase, HEK293)
Assay type: cell-based
condition_summary: calculated as EC50 (TRα)/EC50 (TRβ); Table 2

>  <molecule>
CON(C)C(=O)COc1cc(Cl)c(Cc2ccc(O)c(C(C)C)c2F)c(Cl)c1 [Compound 22]

>  <T3-SI (selectivity index)>
++ (3×<T3-SI≤30×)

$$$$
>  <molecule>
Cc1cc(OCC(=O)O)c(F)c(Cl)c1Cc1ccc(O)c(C(C)C)c1F [Compound 109]

>  <T3-SI (selectivity index)>
+++ (T3-SI>30×)

$$$$
>  <molecule>
C=Cc1c(F)c(OCC(=O)O)cc(Cl)c1Cc1ccc(O)c(C(C)C)c1 [Compound 67]

>  <T3-SI (selectivity index)>
++ (3×<T3-SI≤30×)

$$$$
>  <molecule>
C=C(C)c1cc(OCC(=O)O)cc(C)c1Cc1ccc(O)c(C(C)C)c1F [Compound 12]

>  <T3-SI (selectivity index)>
++ (3×<T3-SI≤30×)

$$$$
>  <molecule>
C=C(C)c1cc(OCC(=O)O)cc(Cl)c1Cc1ccc(O)c(C(C)C)c1F [Compound 46]

>  <T3-SI (selectivity index)>
++ (3×<T3-SI≤30×)

$$$$
>  <molecule>
Cc1c(OCC(=O)O)cc(Cl)c(Cc2ccc(O)c(C(C)C)c2)c1Cl [Compound 91]

>  <T3-SI (selectivity index)>
+++ (T3-SI>30×)

$$$$
>  <molecule>
O=C(O)COc1cc(Cl)c(Cc2ccc(O)c(-c3cc(OC(F)F)ccc3F)c2F)c(Cl)c1 [Compound 26]

>  <T3-SI (selectivity index)>
++ (3×<T3-SI≤30×)

$$$$
>  <molecule>
O=C(O)COc1cc(Cl)c(Cc2ccc(O)c(-c3cc(C(F)(F)F)ccc3F)c2F)c(Cl)c1 [Compound 25]

>  <T3-SI (selectivity index)>
++ (3×<T3-SI≤30×)

$$$$

---

tested_system: TRα (Homo sapiens)
Construct: expressed in transfected cells; host or cells: HEK293
Sequence (P10827 163-410 isoform P10827-2 limits assumed): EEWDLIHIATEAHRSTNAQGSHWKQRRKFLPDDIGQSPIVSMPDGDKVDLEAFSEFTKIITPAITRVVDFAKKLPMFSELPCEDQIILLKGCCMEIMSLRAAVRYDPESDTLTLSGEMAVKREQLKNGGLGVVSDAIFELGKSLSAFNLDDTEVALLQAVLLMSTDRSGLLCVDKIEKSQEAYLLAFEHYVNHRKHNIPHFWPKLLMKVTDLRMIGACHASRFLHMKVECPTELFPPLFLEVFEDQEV
test_method_notes: Thyroid-hormone reporter-gene assay (TRα-Gal4 hybrid, luciferase, HEK293)
Format: cell-based
condition_summary: reporter cells, 24 hr incubation; Table 2; read-out: TRα (EC50)
pEC50: −log10 of the molar value.
property: pEC50

>  <compound>
CCc1cc(OCC(=O)O)cc(Cl)c1Cc1ccc(O)c(C(C)C)c1F [Compound 43]

>  <tested_system>
TRα (Homo sapiens)

>  <property>
pEC50

>  <result>
7.00 to 8.00

$$$$
>  <compound>
CC(C)c1cc(OCC(=O)O)cc(Cl)c1Cc1ccc(O)c(C(C)C)c1F [Compound 47]

>  <tested_system>
TRα (Homo sapiens)

>  <property>
pEC50

>  <result>
> 8.00

$$$$
>  <compound>
CCOC(=O)COc1cc(F)c(Cc2ccc(O)c(C(C)C)c2)c(Cl)c1F [Compound 147]

>  <tested_system>
TRα (Homo sapiens)

>  <property>
pEC50

>  <result>
< 6.00

$$$$
>  <compound>
CC(C)c1cc(Cc2c(Cl)cc(OCC(=O)O)c(F)c2C(C)C)ccc1O [Compound 73]

>  <tested_system>
TRα (Homo sapiens)

>  <property>
pEC50

>  <result>
< 6.00

$$$$
>  <compound>
CNC(=O)COc1cc(Cl)c(Cc2ccc(O)c(C(C)C)c2)c(Cl)c1OC [Compound 167]

>  <tested_system>
TRα (Homo sapiens)

>  <property>
pEC50

>  <result>
7.00 to 8.00

$$$$
